- measurement_conditions: in trichlorobenzene
Rule: condition met for temperature of 10 hour half-life not less than 80 °C, condition not met for anything less.

The examples below pair each entry with its known result.
>>> category("CC(C)(C)N=NC(C)(C#N)CCC(=O)O (centres unmarked)")
"condition not met"
>>> category("CC(C)CC(C#N)(CC(C)C)N=NC(C)(C)C")
"condition not met"
>>> category("CC(C)(C)N=NC1(C(N)=O)CCCCC1")
"condition met"

Does the reported temperature of 10 hour half-life for CC(C)(C)N=NC(C)(C#N)C1CC1 (centres unmarked) fall at or above the 80 °C mark?
condition not met

Does the reported temperature of 10 hour half-life for "CC(C)(C)N=NC(C)(C)C(N)=O" fall at or above the 80 °C mark?
condition met

* * *

- measurement_conditions: in trichlorobenzene
property: temperature of 10 hour half-life (°C)
Please state the figure in °C; there is no need to write the unit.

>>> endpoint_value("CC(C)(C)N=NC1(C#N)CCCCC1")
96

Specify reported temperature of 10 hour half-life for the compound shown: "CC(C)(C#N)N=NC(C)(C)c1ccccc1"
50

* * *

- measurement_conditions: in trichlorobenzene
property: temperature of 10 hour half-life

Specify reported temperature of 10 hour half-life for the compound shown: CC(C)(C)N=NC(C)(C#N)C(C)(C)C (stereo not shown) [IX, 2-t-Butylazo-2-cyano-3,3-dimethylbutane]
80 °C

* * *

- measurement_conditions: Table II; solvent not given
Overview of recorded 10 hr. t1/2 temp. for various molecules
Please state the figure in °C; there is no need to write the unit.

Recorded 10 hr. t1/2 temp., per entry:
>>> endpoint_value("CCCCCCC(C)(C#N)N=NC(C)(C)C (stereo not shown)")
79
>>> endpoint_value("CC(C)(C)N=NC1(C#N)C(C)(C)C(=O)C1(C)C")
115

Then this molecule:
Specify reported 10 hr. t1/2 temp. for the molecule shown: CC(C)(C)CC(C)(C#N)N=NC(C)(C)C (stereo not shown)
52

* * *

- measurement_conditions: in trichlorobenzene
property: temperature of 10 hour half-life

Recorded temperature of 10 hour half-life, per entry:
>>> endpoint_value("COC(C)(C)CC(C)(C#N)N=NC(C)(C)C (stereo not drawn)")
"approximately 55 °C"
>>> endpoint_value("CC1CC(C)(C)CC(C#N)(N=NC(C)(C)C)C1 (stereo not drawn)")
"78 °C"
>>> endpoint_value("CC(C)(C)N=NC1(C#N)CCCCCCC1")
"approximately 55 °C"
>>> endpoint_value("CCC(C)(C)N=NC(C)(C)C#N")
"79 °C"

Then this compound:
Specify reported temperature of 10 hour half-life for the compound shown: "CC(C)(C)N=NC(C)(C)C#N"
79 °C
